# TEST NAME: Pharmacokinetics of mice, single intravenous and oral administration, plasma
# Type: in vivo
# MEASUREMENT PARAMETERS: mouse; male ICR mice, intravenous 1 mg/kg (footnote *), plasma
EXPERIMENTAL READOUT: Tmax (min)
State just the number; it will be interpreted in min.

# input Please give the measured Tmax for this molecule: Cc1cc2c(c(C)c1NC(=O)CC(C)(C)C)CCN(c1ccc(F)cc1F)C2
# output 4.8

# input Data request, read-out Tmax, for Cc1cc2c(c(C)c1NC(=O)CC1(C)CC1)CCN(c1ccc(F)cc1F)C2
# output 4.8

====

# TEST NAME: Pharmacokinetics of mice, single intravenous and oral administration, plasma
# Type: in vivo
# MEASUREMENT PARAMETERS: mouse; male ICR mice, intravenous 1 mg/kg (footnote *), plasma
Give AUC(0-inf) for every item shown.
Use ng·h/mL as the unit, but write only the number.

# input Record request: AUC(0-inf) value, item Cc1cc2c(c(C)c1NC(=O)CC1(C)CC1)CCN(c1ccc(F)cc1F)C2
# output 366

# input What does the data say about its AUC(0-inf)? Entry: Cc1cc2c(c(C)c1NC(=O)CC(C)(C)C)CCN(c1ccc(F)cc1F)C2
# output 161

====

# TEST NAME: Pharmacokinetics of mice, single intravenous and oral administration, plasma
# Format: in vivo
# MEASUREMENT PARAMETERS: mouse; male ICR mice, intravenous 1 mg/kg (footnote *), plasma
Task for the reader: assign each of the following molecules its reported half-life.
Expressed in min, but write only the number.

# input # query: half-life of entry Cc1cc2c(c(C)c1NC(=O)CC1(C)CC1)CCN(c1ccc(F)cc1F)C2 [Compound J]
# output 52.8

# input // lookup half-life for Cc1cc2c(c(C)c1NC(=O)CC(C)(C)C)CCN(c1ccc(F)cc1F)C2 [Compound B]
# output 56.4

====

Provide the reported Cmax of each item.
# TEST NAME: Pharmacokinetics of mice, single intravenous and oral administration, plasma
# Assay type: in vivo
# MEASUREMENT PARAMETERS: mouse; male ICR mice, intravenous 1 mg/kg (footnote *), plasma

# input Which Cmax value is on record for Cc1cc2c(c(C)c1NC(=O)CC1(C)CC1)CCN(c1ccc(F)cc1F)C2 ?
# output 0.942 µg/mL

# input Which Cmax is listed for Cc1cc2c(c(C)c1NC(=O)CC(C)(C)C)CCN(c1ccc(F)cc1F)C2 ?
# output 0.405 µg/mL

====

Assignment: determine reported AUC(0-inf) for the given molecules.
# TEST NAME: Pharmacokinetics of rats, single intravenous and oral administration, plasma
# Assay type: in vivo
# MEASUREMENT PARAMETERS: rat; male SD rats, intravenous 0.3 mg/kg, plasma
// return numeric value only (unit: ng·h/mL, not printed)

# input Query (molecule): Cc1cc2c(c(C)c1NC(=O)CC(C)(C)C)CCN(c1ccc(F)cc1F)C2 [Compound B] ; field requested: AUC(0-inf)
# output 149

# input Please report the recorded AUC(0-inf) for Cc1cc2c(c(C)c1NC(=O)CC(C)(C)C)CCN(c1ccc(F)cc1)C2 [Compound A] .
# output 144

# input Fill blank: measured AUC(0-inf) of the molecule Cc1cc2c(c(C)c1NC(=O)CC1(C)CC1)CCN(c1ccc(F)cc1)C2 [Compound I] is ____.
# output 166
